- test_system: 28 common HLA alleles (27 from the reference set plus DPB1*03:01), purified MHC molecules
- test_name: competition assay, inhibition of radiolabeled ligand binding to purified HLA class II; bound = IC50 <1000 nM
reported_property: No. of HLA-II alleles bound (alleles)

KFTYLINYIQDEINT [APOB peptide 18 (…)]
19
DKRLAAYLMLMRSPS [APOB peptide 1 (…)]
23
HVKHFVINLIGDFEV [APOB peptide 10 (…)]
21
TLTAFGFASADLIEI [APOB peptide 2 (…)]
21
KIVSLIKNLLVALKD [APOB peptide 20 (…)]
20
